# TEST: qHTS RealTime-Glo MT Cell Viability Assay in HEK293 cells - 16 hour (AID 1224872); further: nearly all actives have a fitted effect of over 50% in size
# RUN CONDITIONS: RealTime-Glo luminescence; series mostly up to 76.8 µM
Records with an inconclusive call do not appear. The source made the active and inactive calls. The call rests on the fitted dose curve; in most records, active means well fitted cell-killing curve with a large enough effect in the repeat runs; inconclusive means weak or mixed curves, or effect the other way; inactive means flat fitted curve, though single readings scatter.
Thanks in advance; please answer with one of these: Y (active), N (inactive)

CCOC(=O)c1ccc(C2CCC(NC[C@H](O)COc3ccc(O)c(NS(C)(=O)=O)c3)CC2)cc1 (some centres not stated) : Y
CCC(CC)C(C)CCOC(C)=O (configuration not stated) : N

## Input Assay outcome for Cl[Si](Cl)(c1ccccc1)c1ccccc1 : what was it?
## Output N

## Input What call does the record list for c1ccsc1 ?
## Output N

## Input Give the logged outcome of this assay for the following compound: CCc1cccc(CC)c1NC(=O)CN(CC(=O)O)CC(=O)O
## Output N

Data provenance is PubChem BioAssay (Tox21).
